experiment: Half life value of the compound; assay type: ADME; conditions: rat
Endpoint: half-life (min)
Hi! Could you send only the number? It should be in min, unit omitted.

Supply recorded half-life for "CC(C)Oc1cc(OCCc2ccsc2)cc(C(=O)Nc2ccc(C(=O)O)cn2)c1" here.
54

====

EC50 reference
Target: Hexokinase-4 (Homo sapiens)
Sequence (P35557 whole entry): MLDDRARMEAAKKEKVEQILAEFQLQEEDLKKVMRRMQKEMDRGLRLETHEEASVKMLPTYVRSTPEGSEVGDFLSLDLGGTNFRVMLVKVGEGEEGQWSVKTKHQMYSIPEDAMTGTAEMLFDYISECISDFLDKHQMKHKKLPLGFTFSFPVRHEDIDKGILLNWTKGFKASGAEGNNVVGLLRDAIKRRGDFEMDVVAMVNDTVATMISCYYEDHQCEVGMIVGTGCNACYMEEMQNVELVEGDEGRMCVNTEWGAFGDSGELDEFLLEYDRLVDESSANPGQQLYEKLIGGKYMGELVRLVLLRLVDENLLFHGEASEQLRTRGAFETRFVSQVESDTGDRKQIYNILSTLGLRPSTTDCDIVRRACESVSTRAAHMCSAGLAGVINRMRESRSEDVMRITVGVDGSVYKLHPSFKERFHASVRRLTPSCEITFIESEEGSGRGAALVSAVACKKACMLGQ
Assay: Potency in Glucokinase activation assay
Hi! Could you send only the number? It should be in µM, unit omitted.

// solved cases for EC50 follow
Smiles Text: CC(C)Oc1cc(OCCc2cccnc2)cc(C(=O)Nc2ccc(C(=O)O)cn2)c1
Endpoint: EC50
Meas Value: 1.26

Smiles Text: CC(C)Oc1cc(OCCc2ccncc2)cc(C(=O)Nc2ccc(C(=O)O)cn2)c1
Endpoint: EC50
Meas Value: 1.78

Smiles Text: CC(C)Oc1cc(OCc2ccccc2)cc(C(=O)Nc2ccc(C(=O)O)cn2)c1
Endpoint: EC50
Meas Value: 0.29

Smiles Text: CC(C)Oc1cc(OCC2CCCC2)cc(C(=O)Nc2ccc(C(=O)O)cn2)c1
Endpoint: EC50
Meas Value: 0.65

Smiles Text: CC(C)Oc1cc(OCc2ccccc2F)cc(C(=O)Nc2ccc(C(=O)O)cn2)c1
Endpoint: EC50
Meas Value: 0.1

Smiles Text: CC(C)COc1cc(OC(C)C)cc(C(=O)Nc2ccc(C(=O)O)cn2)c1
Endpoint: EC50
Meas Value: 0.57

Supply recorded EC50 for "CSc1ccc(OCc2ccccc2)c(C(=O)Nc2ccc(C(=O)O)cn2)c1" here.
4.22

Supply recorded EC50 for "CC(C)Oc1cc(OCCCc2ccccc2)cc(C(=O)Nc2ccc(C(=O)O)cn2)c1" here.
0.42

Supply recorded EC50 for "CC(C)Oc1cc(OCCC2CCOCC2)cc(C(=O)Nc2ccc(C(=O)O)cn2)c1" here.
1.33

Supply recorded EC50 for "O=C(O)c1ccc(NC(=O)c2cc(OCc3ccccc3F)cc(OCc3ccccc3F)c2)nc1" here.
0.09

Supply recorded EC50 for "CSc1ccc(OCc2ccccc2)c(/C=C/c2ccc(C(=O)O)cn2)c1" here.
3.2

Supply recorded EC50 for "O=C(O)c1ccc(NC(=O)c2cc(OCc3ccccc3)cc(OCc3ccccc3)c2)nc1" here.
0.4

Supply recorded EC50 for "CC(C)Oc1cc(OCCC2CCCC2)cc(C(=O)Nc2ccc(C(=O)O)cn2)c1" here.
0.17

Supply recorded EC50 for "CC(C)Oc1cc(OCCc2ccccc2)cc(C(=O)Nc2ccc(C(=O)O)cn2)c1" here.
0.13

Supply recorded EC50 for "O=C(O)c1ccc(NC(=O)c2cccc(OCc3ccccc3Cl)c2)nc1" here.
0.91
